# System: ATP;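 note: ATP exposure 15 min at 22 °C before imaging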
# TEST_PROTOCOL: switch fluorescence ratio, 500 uM ATP over buffer (Cy3 cluster intensity, sum of 5 cycles each) (fold (ratio)); higher = stronger signal-on switching upon ATP binding; sequences stand for … in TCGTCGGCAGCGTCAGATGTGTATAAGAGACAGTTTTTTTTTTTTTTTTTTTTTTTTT…TC
# RUN_PARAMETERS: aptamer strand: ATP DNA aptamer (quencher-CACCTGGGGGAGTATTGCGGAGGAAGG + anchor), 100 nM annealed; ATP concentration: 500 uM
RECORDED_ENDPOINT: switch fluorescence ratio

Examples with their reported switch fluorescence ratio follow.
## Task Give the measured switch fluorescence ratio for `AATACATGTA`
## Result 0.984

## Task Give the measured switch fluorescence ratio for `TGAGAAAGAG`
## Result 2.15

## Task Give the measured switch fluorescence ratio for `TGTGAGCCTG`
## Result 0.98

## Task Give the measured switch fluorescence ratio for `AGGCTCCTCG`
## Result 1.04

## Task Give the measured switch fluorescence ratio for `TTGTAGGAGC`
## Result 0.965

## Task Give the measured switch fluorescence ratio for `AAGTTTATTC`
## Result 0.967

New cases:
## Task Give the measured switch fluorescence ratio for `GCACATTTGC`
## Result 0.95

## Task Give the measured switch fluorescence ratio for `TATTATGAAT`
## Result 0.999

## Task Give the measured switch fluorescence ratio for `GTATAATGAT`
## Result 0.977

## Task Give the measured switch fluorescence ratio for `TTCAGGATTT`
## Result 0.994

## Task Give the measured switch fluorescence ratio for `TAGGTGCTTC`
## Result 1.03

## Task Give the measured switch fluorescence ratio for `GTTCTAGGAG`
## Result 1

## Task Give the measured switch fluorescence ratio for `CACGTATTGG`
## Result 1.11

###

Listed here: items and their measured switch fluorescence ratio.
# Tested on: ATP;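 note: ATP exposure 15 min at 22 °C before imaging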
# TEST_PROTOCOL: switch fluorescence ratio, 500 uM ATP over buffer (Cy3 cluster intensity, sum of 5 cycles each) (fold (ratio)); higher = stronger signal-on switching upon ATP binding; sequences stand for … in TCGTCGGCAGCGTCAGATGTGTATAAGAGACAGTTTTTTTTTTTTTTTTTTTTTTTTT…TC
# RUN_PARAMETERS: aptamer strand: ATP DNA aptamer (quencher-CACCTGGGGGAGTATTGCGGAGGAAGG + anchor), 100 nM annealed; ATP concentration: 500 uM
Please give the numeric answer without any surrounding text.

Examples with their reported switch fluorescence ratio follow.
## Task Give the measured switch fluorescence ratio for `GCGCATTAGC`
## Result 1.3

## Task Give the measured switch fluorescence ratio for `ATTGGGCGCG`
## Result 0.995

New cases:
## Task Give the measured switch fluorescence ratio for `ACAAACTGGT`
## Result 1

## Task Give the measured switch fluorescence ratio for `TGAGTGTGTT`
## Result 0.962

## Task Give the measured switch fluorescence ratio for `CCTGGAGAGT`
## Result 1.02

## Task Give the measured switch fluorescence ratio for `TTTTTTGCTC`
## Result 1.02

## Task Give the measured switch fluorescence ratio for `CATGTCGTTT`
## Result 1

## Task Give the measured switch fluorescence ratio for `ACATTGAAAA`
## Result 0.996

## Task Give the measured switch fluorescence ratio for `GAGATTGTGG`
## Result 0.965

###

# Tested on: ATP;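 note: ATP exposure 15 min at 22 °C before imaging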
# TEST_PROTOCOL: switch fluorescence ratio, 500 uM ATP over buffer (Cy3 cluster intensity, sum of 5 cycles each) (fold (ratio)); higher = stronger signal-on switching upon ATP binding; sequences stand for … in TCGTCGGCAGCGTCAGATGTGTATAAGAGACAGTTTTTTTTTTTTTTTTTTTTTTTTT…TC
# RUN_PARAMETERS: aptamer strand: ATP DNA aptamer (quencher-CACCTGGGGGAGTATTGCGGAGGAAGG + anchor), 100 nM annealed; ATP concentration: 500 uM
Listed here: items and their measured switch fluorescence ratio.
Please give the numeric answer without any surrounding text.

Examples with their reported switch fluorescence ratio follow.
## Task Give the measured switch fluorescence ratio for `TTTAAATATG`
## Result 0.994

## Task Give the measured switch fluorescence ratio for `ATAGTGACCG`
## Result 1.01

New cases:
## Task Give the measured switch fluorescence ratio for `TGTTTTCGCA`
## Result 1

## Task Give the measured switch fluorescence ratio for `TTTGCAGTTC`
## Result 1.3

## Task Give the measured switch fluorescence ratio for `AAGTCGGTCT`
## Result 1.05
